Reference source: ChEMBL document CHEMBL4689842

test system: Fibroblast; experiment: Multiplex assay against human fibroblast; type: toxicity, cell-based; settings: 12 h, 10 µM, compound concentration 10 uM, replicate 2
OBSERVED_PROPERTY: Population Mitochondria Different-Phenotype (%)
Kindly provide the numeric value in % only, without the unit symbol.

Form field: reported Population Mitochondria Different-Phenotype (%) of `CC(/C=C1\SC(=S)N(CCCC(=O)Nc2ccc(C(=O)O)c(O)c2)C1=O)=C\c1ccccc1` 6

Form field: reported Population Mitochondria Different-Phenotype (%) of `CCCCN(CC)c1nc(C)nc2c1c(C)cn2-c1c(C)cc(C)cc1C.Cl` 55

Form field: reported Population Mitochondria Different-Phenotype (%) of `Cc1c(P(=S)(c2ccccc2)c2ccccc2)n2ccccc2[n+]1C/C=C/c1ccccc1.[Br-]` 83

Form field: reported Population Mitochondria Different-Phenotype (%) of `CC[C@@]1(O)C(=O)OCc2c1cc1n(c2=O)Cc2cc3ccccc3nc2-1` 7

* * *

tested on: Fibroblast; experiment: Multiplex assay against human fibroblast; assay type: toxicity, cell-based; settings: 24 h, 10 µM, compound concentration 10 uM, replicate 1
OBSERVED_PROPERTY: Population Pyknosed Nuclei (%)
Kindly provide the numeric value in % only, without the unit symbol.

The cases that follow already have their Population Pyknosed Nuclei (%) on record.
COMPOUND | REPORTED_VALUE
CC(C)[C@H](CO)Nc1nc(Nc2cccc(Cl)c2)c2ncn(C(C)C)c2n1 [PURVALANOLA] | 25
COc1cc(C)c(Sc2cnc(NC(=O)c3ccc(CNC(C)C(C)(C)C)cc3)s2)cc1C(=O)N1CCN(C(C)=O)CC1 (centres undefined) | 14
CC(/C=C1\SC(=S)N(CCCC(=O)Nc2ccc(C(=O)O)c(O)c2)C1=O)=C\c1ccccc1 | 22

Form field: reported Population Pyknosed Nuclei (%) of CC(C)C[C@H](NC(=O)[C@H](Cc1ccccc1)NC(=O)CNC(=O)CNC(=O)[C@@H](N)Cc1ccc(O)cc1)C(=O)O [ENKEPHALIN] 22

Form field: reported Population Pyknosed Nuclei (%) of N#CCNC(=O)c1ccc(-c2ccnc(Nc3ccc(N4CCOCC4)cc3)n2)cc1 [MOMELOTINIB] 23

Form field: reported Population Pyknosed Nuclei (%) of C[C@@H](Oc1cc(-n2cnc3ccc(CN4CCN(C)CC4)cc32)sc1C(N)=O)c1ccccc1C(F)(F)F [GSK-461364] 22

Form field: reported Population Pyknosed Nuclei (%) of `CC(C)c1cc(Nc2nc(N3CCC[C@H](N)C3)ncc2C(N)=O)cc(C(C)C)n1` 31

Form field: reported Population Pyknosed Nuclei (%) of Oc1cccc(-c2nc(N3CCOCC3)c3oc4ncccc4c3n2)c1 [PI-103] 36

Form field: reported Population Pyknosed Nuclei (%) of Cl.Cn1c2c(c3ccc(Cl)c(Cl)c31)C(C#N)C1(CCNCC1)NC2=O (centres undefined) 15

* * *

test system: HEK-293T; experiment: Multiplex assay against HEK293T; format: toxicity, cell-based; conditions: human, 24 h, 1 µM, compound concentration 1 uM, replicate 1
OBSERVED_PROPERTY: Population Mitochondria Different-Phenotype (%)
Kindly provide the numeric value in % only, without the unit symbol.

SMI | ASSAYED_SYSTEM | UNIT_STRING | REPORTED_VALUE
CC[C@H](Nc1ncnc2[nH]cnc12)c1nc2cccc(F)c2c(=O)n1-c1ccccc1 | HEK-293T | % | 12

Form field: reported Population Mitochondria Different-Phenotype (%) of `Oc1cccc(-c2nc(N3CCOCC3)c3oc4ncccc4c3n2)c1` 78

Form field: reported Population Mitochondria Different-Phenotype (%) of `CC(C)c1cc(Nc2nc(N3CCC[C@H](N)C3)ncc2C(N)=O)cc(C(C)C)n1` 94

* * *

system: U2OS; experiment: Multiplex assay against U2OS; assay type: toxicity, cell-based; conditions: human, 24 h, 1 µM, compound concentration 1 uM, replicate 2
OBSERVED_PROPERTY: Population Membrane Permeable-Phenotype (%)
Kindly provide the numeric value in % only, without the unit symbol.

The cases that follow already have their Population Membrane Permeable-Phenotype (%) on record.
COMPOUND | ASSAYED_SYSTEM | REPORTED_VALUE
Oc1cccc(-c2nc(N3CCOCC3)c3oc4ncccc4c3n2)c1 [PI-103] | U2OS | 3
N#Cc1cccc(C(=O)Nc2cc(-c3ccccc3)nn2-c2ccccc2)c1 | U2OS | 1
CC(/C=C1\SC(=S)N(CCCC(=O)Nc2ccc(C(=O)O)c(O)c2)C1=O)=C\c1ccccc1 | U2OS | 4
CC[C@@H]1C(=O)N(C)c2cnc(Nc3ccc(C(=O)NC4CCN(C)CC4)cc3OC)nc2N1C1CCCC1 [BI-2536] | U2OS | 15

Form field: reported Population Membrane Permeable-Phenotype (%) of CCCCCNC(=N)N/N=C/c1c[nH]c2ccc(OC)cc12.O=C(O)/C=C\C(=O)O [TEGASEROD MALEATE] 5

Form field: reported Population Membrane Permeable-Phenotype (%) of `C=CC(=O)Nc1cc(-n2c(=O)ccc3cnc4ccc(-c5ccc(NS(C)(=O)=O)cc5)cc4c32)ccc1C` 3

Form field: reported Population Membrane Permeable-Phenotype (%) of `Cc1ccc(S(=O)(=O)NC2c3ccccc3Oc3ccccc32)cc1` 7

Form field: reported Population Membrane Permeable-Phenotype (%) of `CCOC(=O)CCNc1cc(N2CCc3ccccc3CC2)nc(-c2ccccn2)n1` 10

Form field: reported Population Membrane Permeable-Phenotype (%) of CN1C(=O)[C@@H](NC(=O)c2cc3ccccc3[nH]2)N=C(c2ccccc2)c2ccccc21 [DEVAZEPIDE] 3

* * *

system: HEK-293T; assay: Incucyte cell viability with HEK293T; format: toxicity, cell-based; settings: human, 12 h, 10 µM, compound concentration 10 uM, replicate number 1, timepoint 12 hours; also: filed as whole numbers so only -1 and 0 and 1 occur
Measured Growth Rate by item
Lab note: record the figure alone, no unit after it.

Form field: reported Growth Rate of COc1cc(C)c(Sc2cnc(NC(=O)c3ccc(CNC(C)C(C)(C)C)cc3)s2)cc1C(=O)N1CCN(C(C)=O)CC1 (stereo not given) 0

Form field: reported Growth Rate of O=C(O)[C@H]1[C@H](Cn2nnc3ccccc3c2=O)CC[C@@H]1C(=O)c1ccc(OCCC2CCOCC2)cc1 [BAY-7598] 1

Form field: reported Growth Rate of CN(C)CCCN1c2ccccc2CCc2ccccc21.Cl [IMIPRAMINE HYDROCHLORIDE] 0

Form field: reported Growth Rate of `COc1ccc(CCc2nc3cc(-c4c(C)noc4C)ccc3n2C[C@H](C)N2CCOCC2)cc1Cl` 1

Form field: reported Growth Rate of CC(C)(N)C(=O)N[C@H](COCc1ccccc1)C(=O)N1CCC2(CC1)CN(S(C)(=O)=O)c1ccccc12.CS(=O)(=O)O [IBUTAMOREN MESYLATE] 1

Form field: reported Growth Rate of `Cc1c(P(=S)(c2ccccc2)c2ccccc2)n2ccccc2[n+]1C/C=C/c1ccccc1.[Br-]` 0

* * *

tested on: U2OS; assay: Multiplex assay against U2OS; format: toxicity, cell-based; conditions: human, 24 h, 1 µM, compound concentration 1 uM, replicate 1
OBSERVED_PROPERTY: Population Mitochondria Different-Phenotype (%)
Kindly provide the numeric value in % only, without the unit symbol.

Form field: reported Population Mitochondria Different-Phenotype (%) of `CCCCN(CC)c1nc(C)nc2c1c(C)cn2-c1c(C)cc(C)cc1C.Cl` 8

Form field: reported Population Mitochondria Different-Phenotype (%) of `C=CC(=O)Nc1cc(-n2c(=O)ccc3cnc4ccc(-c5ccc(NS(C)(=O)=O)cc5)cc4c32)ccc1C` 8

* * *

tested on: HEK-293T; assay: Multiplex assay against HEK293T; format: toxicity, cell-based; conditions: human, 12 h, 10 µM, compound concentration 10 uM, replicate 1
Please respond with yes (1) when measured Population Membrane Permeable-Phenotype (%) is strictly beneath 4%, and with no (0) in all other cases.

For orientation, consider the following solved cases.
COMPOUND | ASSIGNED_CLASS
CCCc1cc(C)[nH]c(=O)c1CNC(=O)c1cc(-c2ccc(N3CCN(C(C)C)CC3)nc2)cc2c1cnn2C(C)C | yes (1)
CC(/C=C1\SC(=S)N(CCCC(=O)Nc2ccc(C(=O)O)c(O)c2)C1=O)=C\c1ccccc1 | no (0)
CN(c1cc(C(F)(F)F)nc(OCCC(=O)O)n1)c1cccc2c1CCC2 | yes (1)

Consider the compound `c1ccc(-c2oc3ncnc(NC[C@@H]4CCCO4)c3c2-c2ccccc2)cc1` . Is its Population Membrane Permeable-Phenotype (%) strictly less than 4%? yes (1)

Consider the compound CS(=O)(=O)N1CCCC(NC(=O)[C@H](CCC2CCCCC2)NC(=O)c2ccc(CNc3ncnc4c3nnn4-c3ccccc3)cc2)C1 (some centres undefined) [SR-301] . Is its Population Membrane Permeable-Phenotype (%) strictly less than 4%? no (0)

Consider the compound Oc1cccc(-c2nc(N3CCOCC3)c3oc4ncccc4c3n2)c1 [PI-103] . Is its Population Membrane Permeable-Phenotype (%) strictly less than 4%? no (0)

Consider the compound CN1C(=O)[C@@H](NC(=O)c2cc3ccccc3[nH]2)N=C(c2ccccc2)c2ccccc21 [DEVAZEPIDE] . Is its Population Membrane Permeable-Phenotype (%) strictly less than 4%? no (0)

Consider the compound `CCCCN(CC)c1nc(C)nc2c1c(C)cn2-c1c(C)cc(C)cc1C.Cl` . Is its Population Membrane Permeable-Phenotype (%) strictly less than 4%? yes (1)

Consider the compound `Cc1ccc(NC(=O)Nc2cc(C(F)(F)F)ccc2F)cc1Nc1ccc2c(c1)NC(=O)/C2=C\c1ccc[nH]1` . Is its Population Membrane Permeable-Phenotype (%) strictly less than 4%? yes (1)

Consider the compound `N#Cc1cccc(C(=O)Nc2cc(-c3ccccc3)nn2-c2ccccc2)c1` . Is its Population Membrane Permeable-Phenotype (%) strictly less than 4%? no (0)
